- test: Cytotoxicity against human HuH7 cells after 3 days by fluorescence assay
- Format: cell-based
- conditionSet: Huh-7 cells
measuredEndpoint: CC50 at 72 h

1. CC[C@@H](C)OC(=O)[C@H](C)NP(=O)(OC[C@H]1O[C@@](C#N)(c2ccc3c(N)ncnn23)[C@](C)(O)[C@@H]1O)Oc1ccccc1 (stereo partly drawn): > 89 µM
2. CC[C@H](C)OC(=O)[C@H](C)NP(=O)(OC[C@H]1O[C@@](C#N)(c2ccc3c(N)ncnn23)[C@](C)(O)[C@@H]1O)Oc1ccccc1 (stereo partly drawn): > 89 µM
3. C[C@H](NP(=O)(OC[C@H]1O[C@@](C#N)(c2ccc3c(N)ncnn23)[C@](C)(O)[C@@H]1O)Oc1ccccc1)C(=O)OC1CCCC1 (stereo partly drawn): > 89 µM
